Experimental system: B-Raf(V599E) kinase (Homo sapiens, UniProt P15056, V600E)
Sequence (P15056 with tags, fused parts or gaps V600E): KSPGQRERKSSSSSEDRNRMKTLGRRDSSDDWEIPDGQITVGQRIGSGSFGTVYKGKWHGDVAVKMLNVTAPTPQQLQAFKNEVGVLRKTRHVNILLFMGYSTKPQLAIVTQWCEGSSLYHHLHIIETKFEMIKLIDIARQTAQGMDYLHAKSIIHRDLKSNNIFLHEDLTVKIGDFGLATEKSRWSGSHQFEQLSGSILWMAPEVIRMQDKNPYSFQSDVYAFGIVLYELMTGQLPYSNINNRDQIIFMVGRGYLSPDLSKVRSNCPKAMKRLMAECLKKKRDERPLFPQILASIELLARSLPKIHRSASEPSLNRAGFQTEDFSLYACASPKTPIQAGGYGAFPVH
Test description: B-Raf(V599E) kinase assay B1 (construct 1, MEK1 substrate, coupled spectrophotometric)
Assay type: biochemical
Measurement label: pIC50
Notebook: values listed as pIC50 are -log10 of the concentration (mol/L).

Compound: CC(C)(C)c1cc(NC(=O)Nc2cccc(Cl)c2Cl)n(-c2ccc3c(c2)NCC3)n1 [Example 112]
Experimental system: B-Raf(V599E) kinase (Homo sapiens, UniProt P15056, V600E)
pIC50: 8.54

Compound: CC(C(N)=O)c1cccc(-n2nc(C(C)(C)C)cc2NC(=O)Nc2cccc(Cl)c2Cl)c1 (centres unmarked) [Example 249]
Experimental system: B-Raf(V599E) kinase (Homo sapiens, UniProt P15056, V600E)
pIC50: 8.35

Compound: CC(C)(C)c1cc(NC(=O)Nc2ccc3c(c2)OCO3)n(-c2cccc(C#N)c2)n1 [Example 6]
Experimental system: B-Raf(V599E) kinase (Homo sapiens, UniProt P15056, V600E)
pIC50: 6.74

Compound: CC(C)(C)c1cc(NC(=O)Nc2cccc(Cl)c2Cl)n(-c2cccc(C(=N)N)c2)n1 [Example 44]
Experimental system: B-Raf(V599E) kinase (Homo sapiens, UniProt P15056, V600E)
pIC50: 8.40

Compound: CC(C)(C)c1cc(NC(=O)Nc2cccc(Oc3cccnc3)c2)n(-c2cc(CN)c3ccccc3c2)n1 [Example 72]
Experimental system: B-Raf(V599E) kinase (Homo sapiens, UniProt P15056, V600E)
pIC50: 8.36

Input line: Can you share its pIC50? I mean this compound: CC(C)(C)c1cc(NC(=O)Nc2cc(F)c(F)cc2F)n(-c2cc(CNC(N)=O)c3ccccc3c2)n1 [Example 297]
Output line: 8.49

Input line: Can you share its pIC50? I mean this compound: COc1ccc(-n2nc(C(C)(C)C)cc2NC(=O)Nc2ccccc2F)cc1 [Example 237]
Output line: 7.23

Input line: Can you share its pIC50? I mean this compound: CC(C)(C)c1cc(NC(=O)Nc2ccccc2)n(-c2cc(CC(=O)O)c3ccccc3c2)n1 [Example 301]
Output line: 8.00
